All values here come from ChEMBL document CHEMBL1134989.

- runDescription: Half-life in human plasma
- Type: ADME, cell-free
propertyName: half-life (min)
Give the number; min is assumed, so skip it.

Query: Fill in: half-life of COc1ccc(NC(=O)CC(C)(C)c2c(OC)cc(OC)cc2OC(C)=O)cc1 is ___
Result: 52
